Tested on: SR leukemia
testName: NCI tumour cell line growth inhibition, 48 h
Kindly state TGI for each of the entries shown.

Case `CCN(CC)Cc1cc(Nc2ccnc3ccc4nn(C)nc4c23)ccc1O` , SR leukemia, TGI recorded as > 100 µM

Case `CN1CCN(CCCN2c3ccccc3Sc3ccc(Cl)cc32)CC1` , SR leukemia, TGI recorded as 11.3 µM

Case `O=C1C(c2ccccc2)=C(c2ccccc2)C(c2ccc(Sc3ccc(C4=C(c5ccccc5)C(=O)C(c5ccccc5)=C4c4ccccc4)cc3)cc2)=C1c1ccccc1` , SR leukemia, TGI recorded as > 100 µM

Case O=C1CC(N2C(=O)/C(=C/C(Cl)=C\c3ccc([N+](=O)[O-])cc3)SC2=S)C(=O)N1c1ccc(O)cc1 (stereo not drawn) , SR leukemia, TGI recorded as 4.97 µM

Case `Cc1cccc(Cl)c1NC(=O)c1cnc(Nc2cc(N3CCOCC3)cc(S(C)(=O)=O)c2)s1` , SR leukemia, TGI recorded as > 10 µM

Case [Cu+2].[NH-]C(CC(=O)O)C(=O)O.[NH-]C(CC(=O)O)C(=O)O (stereo not drawn) , SR leukemia, TGI recorded as > 100 µM

Case `Cc1cc(=O)n2c3c(c4c(cc13)c(CN(C)C)cc(=O)n4C)OC2` , SR leukemia, TGI recorded as > 100 µM

Case `CC(=O)Oc1ccc2cc(-c3ccc(OC(C)=O)c(OC(C)=O)c3)c(=O)oc2c1` , SR leukemia, TGI recorded as > 100 µM

Case `Cc1ccc(S(=O)(=O)OCCOCCOCCOCCOCCOS(=O)(=O)c2ccc(C)cc2)cc1` , SR leukemia, TGI recorded as 90.9 µM

Case `NC(N)=N/N=C/c1c(-c2cccnc2)nc2sc(Cl)cn12` , SR leukemia, TGI recorded as > 100 µM

Case C=C(Cl)C(C)(Cl)CCC(Cl)C(C)C (stereo not drawn) , SR leukemia, TGI recorded as 64.2 µM

Case CC(=O)OCC1OC(n2ncc(=O)[nH]c2=O)C(OC(C)=O)C1OC(C)=O (stereo not drawn) , SR leukemia, TGI recorded as > 100 µM

Case `CCOC(=O)/C(=C\NC(C)(C)CO)c1nc2ccccc2[nH]1` , SR leukemia, TGI recorded as > 100 µM

Case O=C(CC1(O)C(=O)Nc2c(Cl)cc(Cl)cc21)c1ccc(F)cc1 (stereo not drawn) , SR leukemia, TGI recorded as 57 µM

Case `O=c1[nH]c(=O)n(CCOc2ccc(Cl)cc2)cc1Nc1ccccc1` , SR leukemia, TGI recorded as > 100 µM

Case `O=C1NC(=NCCc2ccccn2)S/C1=C\c1ccc2ncccc2c1` , SR leukemia, TGI recorded as 14 µM

Case CC(=O)NC1COC(COC(=O)CCCCCCCCCCNC(=O)c2ccc([N+](=O)[O-])c3c(=O)c4ccccc4[nH]c23)C(O)C1OC(C)C(=O)NC(C(=O)NC(CCC(N)=O)C(=O)OCc1ccccc1)C(C)C (stereo not drawn) , SR leukemia, TGI recorded as 46.5 µM

Case `CC/C=C\C[C@H](O)C/C=C1/C(=O)C=C[C@@H]1C/C=C\CCCCO` , SR leukemia, TGI recorded as 16.2 µM

Case `CCCCCCCCCCCCCCCCN(CC)CC` , SR leukemia, TGI recorded as 4.51 µM

Case `Cc1sc2c(c1C)C(c1ccc(Cl)cc1)=N[C@@H](CC(=O)NCCCN1CCN(C)CC1)c1nnc(C)n1-2` , SR leukemia, TGI recorded as > 100 µM

Case COC(=O)C(=O)C(/C(=N/N)C(=O)Nc1ccccc1C(N)=O)c1nc2ccc([N+](=O)[O-])cc2[nH]c1=O (stereo not drawn) , SR leukemia, TGI recorded as > 100 µM

Case `Cc1cc(C)nc(NS(=O)(=O)c2ccc(NC(=O)NC(F)(F)F)cc2)n1` , SR leukemia, TGI recorded as > 100 µM

Case CCCCC1(O)CC2CC1C(C)C2(C)C (stereo not drawn) , SR leukemia, TGI recorded as > 100 µM

Case `O=C(O)Cc1ccc(N=Nc2c(O)c(C(=O)O)cc3ccccc23)cc1` , SR leukemia, TGI recorded as > 100 µM

Case COc1ccc(/C=C2\CCC(CCN3CCOCC3)C2=O)cc1 (stereo not drawn) , SR leukemia, TGI recorded as > 100 µM

Case `CC1=CC(=O)N(n2c(Cc3ccc(Cl)cc3)n[nH]c2=O)C1=O` , SR leukemia, TGI recorded as 38.7 µM

Case `COc1ccc(OC)c(/C=C/c2ccnc3ccccc23)c1` , SR leukemia, TGI recorded as 8.07 µM

Case `O=C(CN=C(CN(c1ccccc1)c1ccccc1)Oc1ccc(Cl)cc1Cl)n1ccnc1` , SR leukemia, TGI recorded as > 100 µM

Case `COc1cccc(NC(=O)CC(=O)NN2C(=O)/C(=C/c3ccc(N(CCC#N)CCC#N)cc3)N=C2c2cc([N+](=O)[O-])ccc2Cl)c1` , SR leukemia, TGI recorded as > 100 µM

Case `CCOC(=O)C1(N)CC1` , SR leukemia, TGI recorded as > 100 µM

Case `O=S(=O)(O)c1ccc2c(N=Nc3ccccc3)c(O)ccc2c1` , SR leukemia, TGI recorded as > 100 µM

Case `CC(C)=NNC(=S)NC12CC3CC(CC(C3)C1)C2` , SR leukemia, TGI recorded as > 100 µM

Case `Cc1nc2c3c(ccc2[nH]c1=O)C(=O)c1ccccc1C3=O` , SR leukemia, TGI recorded as > 100 µM
